Where do these numbers come from? They come from the RNAGym collection of RNA variant scans (doi:10.1093/molbev/msab373).

B1: Azoarcus group I ribozyme (parent)
chain: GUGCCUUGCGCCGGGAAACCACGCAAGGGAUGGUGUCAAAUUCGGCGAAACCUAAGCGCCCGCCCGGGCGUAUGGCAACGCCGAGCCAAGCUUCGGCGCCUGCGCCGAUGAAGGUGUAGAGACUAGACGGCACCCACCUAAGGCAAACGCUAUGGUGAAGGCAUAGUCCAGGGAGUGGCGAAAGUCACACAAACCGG

variants of: B1; experiment: reverse-splicing fitness (ratio to wild type); higher = more active; in vitro selection; Mg2+ level not given

| Mutation key | reverse-splicing fitness |
| --- | --- |
| C82A A111U A120C A145G C150U U176G | 0.00822 |
| C82U A120G C150G C169G U176A | 0.00641 |
| C82U A111C A145C C150G C169U U176A | 0.00919 |
| C82G A111G A145U C150U C169G U176G | 0.00611 |
| C82U A111G A120G C169U U176C | 0.0174 |
| C82G A111C A145C C150A C169U U176G | 0.0092 |
| C82A A111G A120C A145C C169G U176A | 0.0285 |
| C82U A111U A120U C150G C169U U176C | 0.00377 |
| C82A A111C A120C A145U C150A C169G U176A | 0.0154 |
| C82G A111G A120U A145C C150G C169U U176G | 0.00221 |
| C82U A111G A120C A145U C150A U176G | 0.0049 |
| C82G A111U A145U C169G U176A | 0.0122 |
| C82A A111C A120G A145U C150U C169A U176G | 0.00604 |
| C82G A111G A120C A145G C169A | 0.00771 |
| C82A A111C A120G A145C C150A C169G U176G | 0.00557 |
| C82U A111C C150G C169U | 0.00902 |
| C82A A111G A120G A145G C150A C169G | 0.00854 |
| C82U A120G A145C C169A U176G | 0.00332 |
| A111G A120G C150U | 0.156 |
| C82A A111U A120G A145C C150A C169U | 0.00834 |
| C82G A111C A120U A145C C150A C169G | 0.00326 |
| C82G A111G A120C A145U C150G C169G | 0.00697 |
| A111C A120G A145U C150U C169G U176C | 0.0326 |
| C82G A111C A120U C150G | 0.00766 |
| C82A A111G A120U C150G C169G | 0.00649 |
| C82U A120U C150G U176C | 0.00788 |
| C82U A111G A120C A145G C150G C169G U176G | 0.00471 |
| C82G C169G | 0.0111 |
| C82U A111G A120G A145G C150G U176G | 0.00546 |
| A120G A145C C150G C169A U176G | 0.00448 |
| C82U A145U C150G C169U | 0.00842 |
| C82A A111C C150G C169A | 0.00766 |
| C82A A145G C169G | 0.0111 |
| C82G A111C A120G A145U C150G C169U U176A | 0.00847 |
| A111G A145G C150G C169U U176C | 0.0172 |
| C82A A120C C150A C169G U176G | 0.00627 |
| A111C A120U C150U U176C | 0.194 |
| C82A A111U A120C A145C C169A U176A | 0.0167 |
| C82G A111C C150G U176A | 0.00967 |
| C82G A111C A120U A145U C150U U176A | 0.00941 |
| A111C A145G C150A C169A U176G | 0.00852 |
| C82U A120C A145C C169U U176A | 0.0191 |
| C82A A111C A120U A145C C150G U176G | 0.00265 |
| C82A A120C A145U C150U C169U | 0.0159 |
| C82A A111U A120G A145C C150G U176A | 0.00504 |
| A111G A145G U176G | 0.333 |
| A111C A120U A145G C169A U176G | 0.00216 |
| C82A A111U A120G C150G C169U U176A | 0.01 |
| A120C A145U C150A C169A | 0.00801 |
| C82A A111G A145U C150G U176G | 0.0047 |
| C82G A111C A145C C169A U176G | 0.00713 |
| A111U A145G U176C | 0.721 |
| C82A A111U A120C A145G C169G U176G | 0.00647 |
| C82U A120U A145C C150A C169A U176C | 0.00171 |
| C82U A120G A145U C150G | 0.00697 |
| A111G A120U C150A C169G | 0.0107 |
| C82U A111C A120C A145C C169A U176G | 0.00387 |
| A120G A145G C150A C169A U176G | 0.00587 |
| C82U A111C A120C U176G | 0.00517 |
| C82G A111G A120C A145U U176A | 0.0294 |
| C82G A111G A120U A145C C150U U176A | 0.00647 |
| C82A A120C A145C C150A C169U U176A | 0.0144 |
| C82G A111C A120G A145C U176G | 0.00507 |
| C82A A111C A120C A145C U176G | 0.00663 |
| A111G A120U C150G | 0.0688 |
| C82U A111C A120G A145G C150U C169U U176G | 0.00449 |
| C82G A111U A120C A145C C150U U176G | 0.00601 |
| A111C A120C C150G C169G | 0.00757 |
| C82U A120U A145U C169U U176A | 0.00227 |
| C82A A120G A145C C150U C169G | 0.00984 |
| C82G A111G A145C C150U C169U U176C | 0.0103 |
| C82U A111C A120C A145G C150A C169U | 0.0103 |
| C82A A111U A120G A145G C169A U176G | 0.00503 |
| C82U A111G A120G A145U C150A C169U U176A | 0.019 |
| C82A A111C A120U C150U C169G | 0.00537 |
| C82A A120C C150G C169G U176A | 0.00779 |
| A111C A120U A145C C150A U176G | 0.00735 |
| A111U A120U A145G C150A C169A U176C | 0.0038 |
| C82G A111C A145C U176G | 0.0504 |
| C82U A111C A120C A145G C150U C169A U176A | 0.0123 |
| A111C A120G A145C C150G C169U U176A | 0.0111 |
| A145U C169U U176C | 0.149 |
| C82G A111U A120C A145C C150U C169G U176G | 0.00776 |
| C82U A111G A120U A145C C150G C169A U176A | 0.00187 |
| A111C A120C A145U C150G C169G U176A | 0.00752 |
| C82U A111U C150G C169U U176C | 0.0106 |
| C82U A111C A120U C150U C169A | 0.00496 |
| C82U A111G A120G A145G C150G C169A U176G | 0.00756 |
| C82G A120G A145G C150U C169G U176A | 0.0169 |
| C82A A111G C169G U176C | 0.0207 |
| C82G A111U A120U A145C C150G C169A U176G | 0.00246 |
